Molecular target: T1, SARS‐CoV‐2 spike membrane protein of the Wuhan‐Hu‐1 strain (SARS-CoV-2 Wuhan-Hu-1 (QHD43416.1), UniProt P0DTC2)
T1 construct: source: HEK293, transiently cotransfected (PEI) with a GFP plasmid, on the cell surface
Test: flow cytometry on cells
Conditions: one partner purified
Quick reference for MdFI among some binders
# output: bare number, no unit

Reference set (3 entries):
BINDER	REPORTED_MEASUREMENT
S2H97 (antibody, V domains shown) VH: QVRLVQSGAEVKKSGESLKISCKGSGYSFTSYWIGWVRQMPGKGLEWMGIIYPGDSDTRYSPSFQGQVTISADKSISTVYLQWSSLKASDTAMYYCARQWSHYTYDYYYWGQGTLVTISS VL: QSVLTQPASVSGSPGQSITISCTGISSDVGGYNSVSWYQQHPGKAPKLMIYDVTNRPSGVSNRFSGSKSGNTASLTISGLQAEDEADYYCSSYTSSSTPPYVFGTGTKVSVL	58000
8D2 (antibody, V domains shown) VH: EVQLVESGGGLVQPGGSLRLSCAASGFTFSSYWMSWVRQAPGKGLEWVANINQDGSEKYYVDSVKGRFTISRDNAKNSLYLQVNSLRAEDTAVYYCARDWDYDILTGSWFGAFDIWGQGTTVTVSS VL: DIQMTQSPSSLSASVGDRVTITCRASQGIRNDLGWYQQKPGKAPKRLIYAASSLQSGVPSRFSGSGSGTEFTLTISSLQPEDFATYYCLQHNSYPLTFGGGTKVEIK	37000
REGN10933 (Casirivimab) (antibody, V domains shown) VH: QVQLVESGGGLVKPGGSLRLSCAASGFTFSDYYMSWIRQAPGKGLEWVSYITYSGSTIYYADSVKGRFTISRDNAKSSLYLQMNSLRAEDTAVYYCARDRGTTMVPFDYWGQGTLVTVSS VL: DIQMTQSPSSLSASVGDRVTITCQASQDITNYLNWYQQKPGKAPKLLIYAASNLETGVPSRFSGSGSGTDFTFTISGLQPEDIATYYCQQYDNLPLTFGGGTKVEIK	236000

Ask: For 3467 (antibody, V domains shown, also called TRIANNI mouse‐derived antibody 3467) VH: QVQLQESGPGLVKPSETLSLTCTVSGGSISSYHWNWIRQPPGKGLEWIGYIYYSGNTNYNPSLKSRVSISTDTSKNQFSLKLSSVTAADTAVYYCVREMRRGYSGYDYWDLYAFDIWGQGTMVTVSS VL: DIQLTQSPSFLSASVGDRVTITCRASQGISSYLAWYQQKPGKAPNLLIYAASTLQSGVPSRFSGSGSGTEFTLTISSLQPEDFATYYCQQLNSYPHTFGQGTKLEIK , write its MdFI.
Reply: 165000

Measured values drawn from paper PMC9087419 for this set.
